Experiment: Selectivity index, IC50 for L6 cells/ IC50 for Trypanosoma brucei rhodesience
Assay type: functional
measurement type: Ratio IC50
One number for each entry.

// solved cases for Ratio IC50 follow
molecule="OC1CC2(N3CCCC3)CC(c3ccccc3)C1C(c1ccccc1)C2 (stereo not given)" measurement_type="Ratio IC50" readout_number=6.28
molecule="OC1CC2(N3CCCCC3)CC(c3ccc(Cl)cc3)C1C(c1ccc(Cl)cc1)C2 (stereo not given)" measurement_type="Ratio IC50" readout_number=26.34
molecule="O/N=C1/CC2(N3CCCC3)CC(c3ccc(Cl)cc3)C1C(c1ccc(Cl)cc1)C2 (stereo not given)" measurement_type="Ratio IC50" readout_number=3.85
molecule="CN(C)C12CCNC(C(c3ccccc3)C1)C(c1ccccc1)C2 (stereo not given)" measurement_type="Ratio IC50" readout_number=181.3

For the molecule shown here, Clc1ccc(C2CC3(N4CCCCC4)CCNC2C(c2ccc(Cl)cc2)C3)cc1 (stereo not given) , give the reported Ratio IC50.
124.6

----------
Tested on: Trypanosoma brucei rhodesiense
Assay: Antiprotozoal activity against Trypanosoma brucei rhodesiense STIB900
Type: functional, organism-based
Give measured pIC50 for each item. Keep answers brief.
Answers are plain numbers, as −log10 of the molar value.

compound="COc1ccc(C2CC3(N(C)C)CC(=O)C2C(c2ccc(OC)cc2)C3)cc1 (stereo not given)" readout_number=5.30
compound="CN(C)C12CC(O)C(C(c3ccc(Cl)cc3)C1)C(c1ccc(Cl)cc1)C2 (stereo not given)" readout_number=6.49
compound="O/N=C1\\CC2(N3CCCC3)CC(c3ccccc3)C1C(c1ccccc1)C2 (stereo not given)" readout_number=5.74
compound="CN(C)C12C/C(=N\\O)C(C(c3ccccc3)C1)C(c1ccccc1)C2 (stereo not given)" readout_number=5.12
compound="OC1CC2(N3CCCC3)CC(c3ccccc3)C1C(c1ccccc1)C2 (stereo not given)" readout_number=5.37

For every item in the list below, what is its measured pIC50?
1. OC1CC2(N3CCCC3)CC(c3ccc(Cl)cc3)C1C(c1ccc(Cl)cc1)C2 (stereo not given)
2. CN(C)C12C/C(=N\O)C(C(c3ccc(Cl)cc3)C1)C(c1ccc(Cl)cc1)C2 (stereo not given)
3. O/N=C1\CC2(N3CCCC3)CC(c3ccc(Cl)cc3)C1C(c1ccc(Cl)cc1)C2 (stereo not given)
4. OC1CC2(N3CCCCC3)CC(c3ccccc3)C1C(c1ccccc1)C2 (stereo not given)

6.43
5.82
5.77
5.27

For the compound shown here, COc1ccc(C2CC3(N4CCCCC4)CC(=O)C2C(c2ccc(OC)cc2)C3)cc1 (stereo not given) , give the reported pIC50.
5.00

----------
Give measured IC50 for each item. Keep answers brief.
Tested on: L6
Experiment: Cytotoxicity against L6 cells
Assay type: cell-based
Conditions: Rattus norvegicus
Answers are plain numbers, in µM.

compound="CN(C)C12C/C(=N\\O)C(C(c3ccccc3)C1)C(c1ccccc1)C2 (stereo not given)" measurement_type=IC50 readout_number=150

For every item in the list below, what is its measured IC50?
1. O/N=C1\CC2(N3CCCC3)CC(c3ccc(Cl)cc3)C1C(c1ccc(Cl)cc1)C2 (stereo not given)
2. O/N=C1\CC2(N3CCCC3)CC(c3ccccc3)C1C(c1ccccc1)C2 (stereo not given)
3. COc1ccc(C2CC3(N4CCCCC4)CC(O)C2C(c2ccc(OC)cc2)C3)cc1 (stereo not given)
4. O/N=C1/CC2(N3CCCC3)CC(c3ccc(Cl)cc3)C1C(c1ccc(Cl)cc1)C2 (stereo not given)
5. CN(C)C12CC(=O)C(C(c3ccccc3)C1)C(c1ccccc1)C2 (stereo not given)

1. 12.7
2. 13.5
3. 44.6
4. 5.81
5. 24.6

Recorded values, source ChEMBL document CHEMBL1137288.
